FYI, the data here is from patent US11254663B2.

Target: FXR (Homo sapiens (Human), UniProt Q96RI1)
Sequence (Q96RI1 262-486): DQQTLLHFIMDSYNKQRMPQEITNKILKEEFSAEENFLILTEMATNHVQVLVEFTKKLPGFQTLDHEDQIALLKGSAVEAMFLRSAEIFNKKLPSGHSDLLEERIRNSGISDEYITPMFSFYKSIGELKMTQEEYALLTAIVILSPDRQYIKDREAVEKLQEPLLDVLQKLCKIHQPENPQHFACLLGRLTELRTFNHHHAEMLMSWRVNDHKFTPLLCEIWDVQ
Assay: FXR EC50 (FXR agonist potency reported with each Example)
Assay type: cell-based
Reported pEC50 by item:
Reminder that pEC50 means the negative base-10 logarithm of the concentration expressed in mol/L.

// below: answered compounds
[
  {
    "compound": "Cc1cnc(C23CCC(CN(C(=O)C45CC(F)(C4)C5)c4cccc(-c5nc(C(F)F)co5)c4)(CC2)CC3)o1",
    "assay-system": "FXR (Homo sapiens (Human), UniProt Q96RI1)",
    "experimental-endpoint": "pEC50",
    "value-observed": 6.59
  },
  {
    "compound": "Cn1nc(C2CC2)cc1C12CCC(CN(C(=O)C34CC(F)(C3)C4)c3cccc(-c4noc(C5(C)CC5)n4)c3)(CC1)CC2",
    "assay-system": "FXR (Homo sapiens (Human), UniProt Q96RI1)",
    "experimental-endpoint": "pEC50",
    "value-observed": 7.09
  },
  {
    "compound": "CCCc1ncc(-c2cccc(N(CC34CCC(c5cc(C(F)(F)F)ccn5)(CC3)CC4)C(=O)C34CC(F)(C3)C4)c2)o1",
    "assay-system": "FXR (Homo sapiens (Human), UniProt Q96RI1)",
    "experimental-endpoint": "pEC50",
    "value-observed": 6.62
  }
]

Please turn your attention to the following entry.
Entry CCc1noc(-c2cccc(N(CC34CCC(c5nc(C6CC6)no5)(CC3)CC4)C(=O)C3CC(C(F)F)C3)c2)n1 (stereo not shown) ; pEC50 = 6.49
